IC50 by entry:
# Test system: PNT2 cells
# ASSAY_PROCEDURE: Chemosensitivity assay (MTT) in PNT2 cells
# Type: cell-based
# SETTINGS: 24 h exposure + 48 h recovery, MTT; mean ± SD
Entry rule: numbers only, all in µM.

INSERT INTO results (molecule, reported_value) VALUES
  ('Cc1c(C)c(C)[c-](C)c1C.[Cl-].[Ir+3].c1ccc(-c2cc3ccccc3[n-]2)nc1 [complex 2, [Cp*Ir(ind-py)Cl]]', 32.1),
  ('Cc1ccc(C(C)C)cc1.[Cl-].[Os+2].c1ccc(-c2cc3ccccc3[n-]2)nc1 [complex 4, [(p-cym)Os(ind-py)Cl]]', 34.2),
  ('Cc1ccc(C(C)C)cc1.[Cl-].[Ru+2].c1ccc(-c2cc3ccccc3[n-]2)nc1 [complex 3, [(p-cym)Ru(ind-py)Cl]]', 54.3),
  ('N.N.[Cl][Pt][Cl] [Cisplatin, reference compound]', 43);

Next item in the queue.
Determine from records and report IC50 for Cc1c(C)c(C)[c-](C)c1C.[Cl-].[Rh+3].c1ccc(-c2cc3ccccc3[n-]2)nc1 [complex 1, [Cp*Rh(ind-py)Cl]]
34.7

---

# System: A2780 cells
# ASSAY_PROCEDURE: Cell viability of A2780 cells, co-incubation with N-acetylcysteine (NAC)
# Type: cell-based
# SETTINGS: complex at IC50 concentration, NAC 0, 2, 5 and 10 mM
QUANTITY_NAME: Effect on cell viability in NAC-supplemented cells

INSERT INTO measurements (compound, reported_value) VALUES
  ('Cc1ccc(C(C)C)cc1.[Cl-].[Os+2].c1ccc(-c2cc3ccccc3[n-]2)nc1 [complex 4, [(p-cym)Os(ind-py)Cl]]', 'not observed'),
  ('Cc1ccc(C(C)C)cc1.[Cl-].[Ru+2].c1ccc(-c2cc3ccccc3[n-]2)nc1 [complex 3, [(p-cym)Ru(ind-py)Cl]]', 'not observed');
